- System: L1210 leukemia ip in BDF1 mice, survival T/C
- protocol notes: NCI In Vivo Anticancer Drug Screen. Data for tumor model L1210 Leukemia (intraperitoneal) in B6D2F1 (BDF1) mice
- test parameters: endpoint: mean survival time; dose: 200.0 mg/kg/injection; schedule: Q04DX003 (ip); vehicle: acetone; higher = longer survival
Toxic doses and inconclusive results are not listed.
I'd be grateful if you could share measured T/C for these entries.

Here is how some compounds turned out for T/C.
CSc1ccc2c(c1)-c1ccccc1C2=O = 89 % of control
CCOc1ccc(-n2c(O)c(N=Nc3ccccc3)c(=O)n(-c3ccccc3)c2=S)cc1 = 96 % of control
CC(C)(C)C1=CC(C(C)(C)C)CCC1=O (centres undefined) = 102 % of control

Enquiry: Any idea what its T/C is? The compound is [N-]=[N+]=Nc1ccc2c(=O)c3ccccc3[nH]c2c1
Return: 98 % of control
